assay: yeast display, Sf9 membrane polyspecificity reagent, FACS + sequencing; frameworks hold sequencing errors
Quantity name: polyreactivity (PSR sort gate)

[[record]]
sequence_record = "QVQLVESGGGLVQAGGSLRLSCAASGFIFGSYAMGWYRQAPGKERELVAAISDSGDSTYYADSVKGRYTISRDNAKNTVYLQMNSLKPEDTAVYYCNRGYRWRRCENYYWGQGTQVTVSS"
quantity_name = "polyreactivity (PSR sort gate)"
result = "high polyreactivity"

[[record]]
sequence_record = "QVQHVESGGGLVQAGGSLRLSCAASGFIFDFNAMGRYRPPPGKERELVATISSDGSTNYADSVKGRFTISRDNAKNTVYLQMNSLKPEDTAVYYCNKDSHKDAGTLPGWWYDYWGQGTQVTVSS"
quantity_name = "polyreactivity (PSR sort gate)"
result = "low polyreactivity"

[[record]]
sequence_record = "QVQLVESGGGLVQAGGSLRLSCAASGSTFDYYAMGWYRQAPGKERELVAAISSGGSTNYADSVKGRFTISRDNAKNTVYLQMNSLKPEDTAVYYCAKDHAYTSAPHQYASEYYYWGQGTQVTVSS"
quantity_name = "polyreactivity (PSR sort gate)"
result = "low polyreactivity"

[[record]]
sequence_record = "QVQLVESGGGLVQAGGSLRLSCAASGFILKYYAMGWYRQAPGKERELVAAISSSGGRTYYADSVKGRFTISRDNAKNTVYLQMNSLKPEDTAVYYCAARVIASRGRYGYWGQGTQVTVSS"
quantity_name = "polyreactivity (PSR sort gate)"
result = "high polyreactivity"

[[record]]
sequence_record = "QVQLVESGGGLVQAGGSLRLSCAASGFIIYRYAMGWYRQAPGKEREVVATISSRGGSTYYADSVKGRFTISRDNAKNTVYLQMNSLKPEDTAVYYCNVRTRVKTTQSYDRNNYYWGQGTQVTVSS"
quantity_name = "polyreactivity (PSR sort gate)"
result = "high polyreactivity"


QUERY: Quick one: polyreactivity (PSR sort gate) of QVQLVESGGGLVQAGGSLRLSCAASGRIIRINAMGWYRQAPGKERELVAAITRGGTTYADSVKGRFTISRDNAKNTVYLQMNSLKPEDTAVYYCNARTGRSPTGFRYWGQGTQVTVSS ?
RESULT: high polyreactivity

QUERY: Recorded polyreactivity (PSR sort gate) of QVQLVESGGGLVQAGGSLRLSCAASGNIFRRYAMGWYRQAPGKERELVAAISISGGNTYYADSVKGRFTISRDNAKNTVYLQMNSLKPEDTAVYYCNAVGRYSEYGYWGQGTQVTVSS , please.
RESULT: high polyreactivity

QUERY: Consider the sequence QVQLVESGGGVVQAGGSLRLSCAASGFIISYNVMVWYRQAPGKERELVAAISSSGGSTYYADSVKGRFTISRDNAKNTVYLQMNSLKPEDTAVYYCATRVSRSFRAYDYWGQRTQVTVSS and give its measured polyreactivity (PSR sort gate).
RESULT: high polyreactivity

QUERY: Entry under review: QVQLVESGGGLVQAGGSLRLSCAASGIFDPNAMGWNRQAPRKERELVAAITSGGSTNYADSVKGRFTISRDNAKNTVYLQMNSLKPEDTAVYYCNRVEGRTRWADEMNYWGQGTQLTVSS . Reported polyreactivity (PSR sort gate)?
RESULT: low polyreactivity

###

assay: yeast display, Sf9 membrane polyspecificity reagent, FACS + sequencing; frameworks hold sequencing errors
Quantity name: polyreactivity (PSR sort gate)

Worked examples follow.
[[record]]
sequence_record = "QVQLVESGGGLVQAGGSLRLSCAASGSTFYGYAMGWYRQAPGKERELVAAITVRGGSTYYADSVKGRFTISRDNAKNTVYLQMNSLKPEDTAVYYCAKGRLRRTYYRNKFSFDYWGQGTQVTVSS"
quantity_name = "polyreactivity (PSR sort gate)"
result = "high polyreactivity"

[[record]]
sequence_record = "QVRLVESGGGLVQAGGSLRLSCAASGRIFLYNARGWYRQAPGKERELVAAINLSDVDTYYADSVKGRFTISRDNAKNTVYLQMNSLKPEDTAVYYCAADGIYWSTIGYYWGQGTQVTVSS"
quantity_name = "polyreactivity (PSR sort gate)"
result = "low polyreactivity"

[[record]]
sequence_record = "QVQLVESGGGLVQAGGSLRLSCAASGSTFYVNAMGWYRQAPGKERELVAYADSVKGRFTISRDNAKNTVYLQMNSLKPEDTAVYYCNADIEYRPGHGRLGDYDYWGQGTQVTVSS"
quantity_name = "polyreactivity (PSR sort gate)"
result = "low polyreactivity"

[[record]]
sequence_record = "QVQLLETVGGLVQAGGSLRLSCASSGFTFGYYTMGWYRQAPGKERELVAAISSSGGRTYYADSVKGRFTISRDIAKNTVYLQMISLKPEDTALYYCNVYYISTDLYYWGQGTQVTVSS"
quantity_name = "polyreactivity (PSR sort gate)"
result = "high polyreactivity"

[[record]]
sequence_record = "QVQLVESGGGLVQAGGSLRLSCAASGFTFARNAMGWYRQAPGKERELVAAINRSGGSTYYADSVKGRFTISRDNAKNTVYLQMNSLKPEDTAVYYCNKPRLAQQGYDYWGQGTQVTVSS"
quantity_name = "polyreactivity (PSR sort gate)"
result = "high polyreactivity"


Now consider the entry below.
QUERY: Query (sequence): QVQLVESGGGLVQAGGILRLSCAASGSTFDPNVMGWYRQAPGKERELVAAITWSGGSTSYADSVKGRFTISRDNAKNTVYLQMNSLKPEDTAVYYCAADWHSWRWGYYYWGQGTQVTVSS ; field requested: polyreactivity (PSR sort gate)
RESULT: low polyreactivity

###

assay: yeast display, Sf9 membrane polyspecificity reagent, FACS + sequencing; frameworks hold sequencing errors
Quantity name: polyreactivity (PSR sort gate)

[[record]]
sequence_record = "QVQLVESGGGLVQAGGSLRLSCAASGNTFYYYCMGWYRQAPGKERELVAAISSSGTSTYYADSVKGRFTISRDNAKNTVYLQMNSLKPEDTAVYYCARRTDRRTGPMYSWGQGTQVTVSS"
result = "high polyreactivity"

[[record]]
sequence_record = "QVQLVESGGGLVQAGGSLRLSCAASGSTIPLYAMGWYRQAPGKERELVAAISRSGGRTYYADSVKGRFTISRDNAKNTVYLQMNSLKPEDTAVYYCDSAQGSRVDYWGQGTQVTVSS"
result = "high polyreactivity"

[[record]]
sequence_record = "QVQLVESAGGLVQAGGILRLSCHASGITFTSYVMGWYRQSPGKERELVAAIRWSGGRTYYADSVKGRFTISRDNAKNTVYLQMNSLKPEDTAVYYCNRVTRSHVDYWGQGTQVTVSS"
result = "high polyreactivity"

[[record]]
sequence_record = "QVQLVESGGGLVQAGGSLRLSCAASGIIFSNYAMGWYRQAPGKERDLVAAITRSGGRTYYADSVKGRFTISRDNAKNTVYLQMNSLKPEDTAVYYCAATGRSGVLSSYYYWGQGTQVTVSS"
result = "high polyreactivity"


QUERY: Return reported polyreactivity (PSR sort gate); argument: QVQLVESGGGLVQAGGSLRLSCAASGSTFIGYAMGWYRHAPGKERELVAGINWSSGSTNYADSVKGRFTISRDNAKNTVYLQMNSLIPEDTAVYYCAADLYWYAHREEYDYWGQGTQVTVSS
RESULT: high polyreactivity

QUERY: Suppose we examine the sequence QVQLVESGGGLVQAGGSLRLSCAASGSTFFGYAMGWYRQAPGKERELVATISSGDSTNYADSVKGRFTISRDNAKNTVYLQMNSLKPEDTAVYYCAAQGGDGVLALYYYWGQGTQVTVSS ; what polyreactivity (PSR sort gate) value has been reported?
RESULT: low polyreactivity

QUERY: Name the reported polyreactivity (PSR sort gate) value associated with the sequence QVQLVESGGGLVQAGGSLRLSCAASGFTFKTNARGWYRQAPVTERELVAAITGSGSSTYYADSVKGRFTISRDNAKNTVYLQMNSLKPEDTAVYYCAASRVYKYYWGQGTEVTVSS
RESULT: high polyreactivity

QUERY: Tell me the measured polyreactivity (PSR sort gate) of QVQLVETGGGLVQAGGSLRLSCAASGRIFWWYAMGWYRQAPGKERELVAAISTGSRTYYADSVKGRFTISRDNAKNTVYLQMNSLKPEDTAVYYCVADGLYSVSRSSIFEYWGQGTQVTVSS , please.
RESULT: low polyreactivity

###

experiment: yeast display, Sf9 membrane polyspecificity reagent, FACS + sequencing; frameworks hold sequencing errors
Quantity name: polyreactivity (PSR sort gate)

[[record]]
sequence_record = "QVQLVESGGGLVQAGGSLRLSCAASGSIFHIYMGGYRQAPGKERELVASMSYRGGTTYYADSVKGRFTISRDNAKNTVYLQKNSLKPEDTAVYYCNVHRDFYHYGRYGHMDYWGQGC"
result = "low polyreactivity"

[[record]]
sequence_record = "QVQLVESGGGLVQAGGSLRLSCAASGRIFGYNAMGWSRQAPGKERELVAAISYSGGSTYYADSVKGRFTISRDNAKNTVYLQMNSLKPEDTAVYYCAARHPYYYHYDYWGQGTQVTVSS"
result = "high polyreactivity"

[[record]]
sequence_record = "QVQLVESGGGLVQAGGSLRLSCAASGITFLNYAMGWSRQEPGKERELVAAITSGGSTYYADSVKGRFTITRDNAKNTVYLQMNSLKPEDTAVYYCAADGDSLPYSFWWQIRLDYWGQGTVVTVSS"
result = "low polyreactivity"

[[record]]
sequence_record = "QVQLVESGGGLVQAGGSLRCSCSASGGIFVNYAMGWSRPAPGKETELVAAISRSGGSTYYADSVKGRFTISRDNANNTVYLQMNSLKPEDTAVYYCAKRRVYYGSRYHYWGEGTQVTVSS"
result = "high polyreactivity"

[[record]]
sequence_record = "QVQIVDSGGGLVQAGGSLRLSCAASGSTFRAYAMGWYRQSPGKEWELVAAISSSGGSTYYADSVKGRFTISRDNAKITVYLQMNSLKPEDTAVYYFAAAFLAAGRNVRYYWGQGTQVTVSS"
result = "high polyreactivity"


QUERY: For the sequence QVQLVETGGGLVQAGGSLRLSCAASGFIFVDYAMGWYRPAPGKERELVAAITSNDDRTYYADSVKGRFTISRDNAKNTVYLQMNSLKPEDTAVYYCAAGGWGATADATFTYLYDYWGQGTQVTVSS , what polyreactivity (PSR sort gate) is on record?
RESULT: low polyreactivity

QUERY: Please report the recorded polyreactivity (PSR sort gate) for QVQLVESGGGLVQAGGSLRLSCAASGLTFKVYAMGWYRQAPGKERELVAAISWSGGSTYYADSVKGRFTISRDNAKNTVYLQMNSLKPEDTAVYYCAARGYAWYRGNYDYWGQGTQVTVSS .
RESULT: high polyreactivity

QUERY: Query: polyreactivity (PSR sort gate); subject: QVQLVESGGGLVQAGGSLRLSCAASGSIFWPYAMGWYRPAPGKERELVATISWNGGSTYYADSVKGRFTISRDNAKNTVYLQMNSLKPEDTAVYYCAAEVYFNQYGGMDYWGQGTQVTVSS
RESULT: low polyreactivity

QUERY: // returns reported polyreactivity (PSR sort gate) for input QVQLVESGGGLVQAGGSLRLSCAASGSIFSTNGMGWYRQAPGKERELVAAISTGGRTYYADSVKGRFTISRDNAKNTVYLQMNSLKPEDTAVYYCAKRFGYRSTEILDYWGQGTQVTVSS
RESULT: low polyreactivity

QUERY: I would be grateful if you could share the reported polyreactivity (PSR sort gate) for QVQLVESGGGLVQAGGSLRLSCAASGFTLGPYMGWYRQAPGKERELVAAISGGGGRTYYADSVKGRFTISRDNAKNTVYLQMNSLKPEDTSVYYCAAAYRSYKQFYSYGYEYWGQGTQVTVSS .
RESULT: high polyreactivity
